- STUDY_SYSTEM: SOS-mediated nucleotide exchange on Ras (Homo sapiens, UniProt Q07889)
- Sequence (Q07889 whole entry): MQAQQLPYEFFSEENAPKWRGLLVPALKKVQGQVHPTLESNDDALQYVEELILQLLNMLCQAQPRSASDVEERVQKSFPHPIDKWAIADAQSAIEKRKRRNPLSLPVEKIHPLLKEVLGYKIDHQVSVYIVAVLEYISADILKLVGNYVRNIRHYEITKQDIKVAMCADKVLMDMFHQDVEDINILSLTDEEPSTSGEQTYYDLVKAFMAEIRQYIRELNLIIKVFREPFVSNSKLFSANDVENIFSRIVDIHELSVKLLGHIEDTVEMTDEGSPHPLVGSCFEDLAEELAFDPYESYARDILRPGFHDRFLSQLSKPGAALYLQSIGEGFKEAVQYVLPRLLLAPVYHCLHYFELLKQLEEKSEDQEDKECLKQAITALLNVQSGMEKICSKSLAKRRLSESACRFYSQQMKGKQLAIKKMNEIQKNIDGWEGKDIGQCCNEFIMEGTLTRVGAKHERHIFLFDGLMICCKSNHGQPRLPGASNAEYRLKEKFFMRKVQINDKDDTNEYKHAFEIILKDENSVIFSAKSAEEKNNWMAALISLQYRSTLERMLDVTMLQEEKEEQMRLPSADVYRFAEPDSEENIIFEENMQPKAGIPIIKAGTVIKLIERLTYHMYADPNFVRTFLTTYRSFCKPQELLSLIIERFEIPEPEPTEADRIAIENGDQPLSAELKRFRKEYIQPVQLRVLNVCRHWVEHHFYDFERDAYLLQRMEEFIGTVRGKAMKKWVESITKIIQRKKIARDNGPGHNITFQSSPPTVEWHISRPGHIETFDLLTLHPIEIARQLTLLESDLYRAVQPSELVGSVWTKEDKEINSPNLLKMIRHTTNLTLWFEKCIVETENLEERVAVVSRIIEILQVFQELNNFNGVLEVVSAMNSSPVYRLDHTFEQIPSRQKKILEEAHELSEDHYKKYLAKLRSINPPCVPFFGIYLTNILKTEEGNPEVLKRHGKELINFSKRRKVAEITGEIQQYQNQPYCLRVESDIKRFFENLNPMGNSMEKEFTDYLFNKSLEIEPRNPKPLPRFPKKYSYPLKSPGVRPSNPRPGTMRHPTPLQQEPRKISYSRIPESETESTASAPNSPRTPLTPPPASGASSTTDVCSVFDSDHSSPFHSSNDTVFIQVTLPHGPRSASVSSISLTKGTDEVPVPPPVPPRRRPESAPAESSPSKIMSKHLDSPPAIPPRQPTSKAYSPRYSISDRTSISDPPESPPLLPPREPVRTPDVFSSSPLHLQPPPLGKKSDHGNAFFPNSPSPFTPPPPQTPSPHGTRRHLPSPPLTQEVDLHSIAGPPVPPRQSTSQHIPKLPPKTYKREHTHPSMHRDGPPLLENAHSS
- METHOD_DESCRIPTION: SOS-mediated nucleotide exchange on Ras (BODIPY-GDP fluorescence)
- CONDITION_NOTES: Ras loaded with BODIPY-GDP, GTP and SOS added; EC50 from derived exchange rates
pEC50: −log10 of the molar value.
ASSAY_METRIC: pEC50

>  <COMPOUND>
Cc1cc(F)cc(Nc2nc(N[C@H](C)C(C)(C)C)c3cccc(CCN)c3n2)c1 [Example 83]

>  <STUDY_SYSTEM>
SOS-mediated nucleotide exchange on Ras (Homo sapiens, UniProt Q07889)

>  <RESULT>
5.30 to 6.00

$$$$
>  <COMPOUND>
C[C@@H](Nc1nc(Nc2ccc(F)c(Cl)c2)nc2c(CN)cccc12)C1CC1 [Example 56]

>  <STUDY_SYSTEM>
SOS-mediated nucleotide exchange on Ras (Homo sapiens, UniProt Q07889)

>  <RESULT>
5.30 to 6.00

$$$$
>  <COMPOUND>
CC[C@@H](Nc1nc(Nc2ccc(F)c(Cl)c2)nc2c(C3=CCNCC3)cccc12)C1CC1 [Example 51]

>  <STUDY_SYSTEM>
SOS-mediated nucleotide exchange on Ras (Homo sapiens, UniProt Q07889)

>  <RESULT>
5.30 to 6.00

$$$$
>  <COMPOUND>
Cc1cc(F)cc(Nc2nc(N[C@H](C)C(C)(C)C)c3cccc(C4=CCNCC4)c3n2)c1 [Example 80]

>  <STUDY_SYSTEM>
SOS-mediated nucleotide exchange on Ras (Homo sapiens, UniProt Q07889)

>  <RESULT>
5.30 to 6.00

$$$$
>  <COMPOUND>
C[C@@H](Nc1nc(Nc2ccc(F)c(Cl)c2)nc2c(CCN)cccc12)c1cccs1 [Example 91]

>  <STUDY_SYSTEM>
SOS-mediated nucleotide exchange on Ras (Homo sapiens, UniProt Q07889)

>  <RESULT>
4.52 to 5.30

$$$$
>  <COMPOUND>
COc1cccc(CNc2nc(N[C@H](C)C3CC3)c3ccccc3n2)c1 [Example 27]

>  <STUDY_SYSTEM>
SOS-mediated nucleotide exchange on Ras (Homo sapiens, UniProt Q07889)

>  <RESULT>
4.52 to 5.30

$$$$
>  <COMPOUND>
C[C@@H](Nc1nc(NCc2cccc(Cl)c2F)nc2c(C3=CCNCC3)cccc12)C(C)(C)C [Example 129]

>  <STUDY_SYSTEM>
SOS-mediated nucleotide exchange on Ras (Homo sapiens, UniProt Q07889)

>  <RESULT>
4.52 to 5.30

$$$$
>  <COMPOUND>
C[C@@H](Nc1nc(Nc2ccn(C)n2)nc2c(C3=CCNCC3)cccc12)C1CC1 [Example 71]

>  <STUDY_SYSTEM>
SOS-mediated nucleotide exchange on Ras (Homo sapiens, UniProt Q07889)

>  <RESULT>
4.52 to 5.30

$$$$

---

- STUDY_SYSTEM: SOS-mediated nucleotide exchange on Ras (Homo sapiens)
- METHOD_DESCRIPTION: SOS-mediated nucleotide exchange on Ras (BODIPY-GDP fluorescence)
- CONDITION_NOTES: Ras loaded with BODIPY-GDP, GTP and SOS added; EC50 from derived exchange rates
ASSAY_METRIC: EC50

>  <COMPOUND>
C[C@@H](Nc1nc(NCc2cccc(Cl)c2F)nc2c(CCN)cccc12)C(C)(C)C

>  <RESULT>
5 to 30 µM

$$$$
>  <COMPOUND>
C[C@@H](Nc1nc(Oc2ccc(F)c(Cl)c2)nc2c(C3=CCNCC3)cccc12)C1CC1

>  <RESULT>
> 30 µM

$$$$
>  <COMPOUND>
C[C@@H](Nc1nc(NCc2cccc(Cl)c2F)nc2c(CN)cccc12)C(C)(C)C

>  <RESULT>
5 to 30 µM

$$$$
>  <COMPOUND>
C[C@@H](Nc1nc(NCc2ccc(F)cc2F)nc2ccccc12)C1CC1

>  <RESULT>
5 to 30 µM

$$$$
>  <COMPOUND>
CC[C@@H](Nc1nc(Nc2ccc(F)c(Cl)c2)nc2c(N3CCNCC3)cccc12)c1cccs1

>  <RESULT>
5 to 30 µM

$$$$
>  <COMPOUND>
C[C@@H](Nc1nc(Nc2cc[nH]n2)nc2c(C3=CCNCC3)cccc12)C1CC1

>  <RESULT>
> 30 µM

$$$$
>  <COMPOUND>
c1ccc2c(NCC3CC3)nc(NCC3CCCO3)nc2c1 (centres unmarked)

>  <RESULT>
> 30 µM

$$$$
>  <COMPOUND>
C[C@@H](Nc1nc(NCC2CCCCCC2)nc2ccccc12)C1CC1

>  <RESULT>
5 to 30 µM

$$$$
